test_target: Histidine--tRNA ligase (Leishmania infantum)
procedure_details: Leishmania infantum Histidine tRNA synthetase (LdHisRS)
Format: functional
Parameters: scale not given: in the data most compounds retested in dose-response had high values
run_parameters: 30 µM
Hit rate of the full screen: of about 69,000 compounds, about 420 (0.61%) showed an effect of 50% or more. This is one part of a sample in which strong results are shown more often than they occur.
Consider the following molecules; for each one, report its Percent Effect.
Entry rule: numbers only, all in %.

Problem: Reported Percent Effect for O=C([C@H]1C[C@@H]2CCN(c3cccc(F)c3)C[C@H]2O1)N1CCCCO1 : what is it?
Result: 22.2

Problem: For CC(C)CN1CCC(NCCNc2cccnc2)CC1 , what is its reported Percent Effect?
Result: 9.76

Problem: Need Percent Effect of CCN1CC[C@@]2(C(=O)N3CCCC3)CCN(S(C)(=O)=O)CC[C@@H]12 , thanks.
Result: 21.4

Problem: Tell me the measured Percent Effect of CCn1cc(C(=O)Nc2cc(C(=O)OC)ccc2C(=O)OC)cn1 , please.
Result: 10.3

Problem: What does the record list as Percent Effect for Nc1nc(CC(=O)N2CCCC(CCc3cccc(F)c3)C2)cc(=O)[nH]1 (centres undefined) ?
Result: 78.3

Problem: Record request: Percent Effect value, item CC(C)CN1C[C@@H]2OCC(=O)N(c3ccccc3)[C@@H]2C1
Result: 21.6

Problem: Look at this molecule and give its reported Percent Effect. CN1CCN(Cc2nnc(C3CCN(CC4CC4)CC3)n2C)CC1
Result: 21.1

Problem: Which Percent Effect is listed for COc1ccc(N2Cc3nc(N)ncc3C2=O)cc1 ?
Result: 0

Problem: Suppose we examine the molecule c1cncc(NCCNC2CCSCC2)c1 ; what Percent Effect value has been reported?
Result: 8.57

Problem: What does the record list as Percent Effect for Cc1ccoc1C(=O)N1CC[C@@H]2O[C@@H](C)C[C@H]2C1 ?
Result: 12.3

Problem: Fill blank: measured Percent Effect of the molecule Cc1cs/c(=N/C(=O)c2csc(NCC(C)C)n2)[nH]1 is ____.
Result: 75.3

Problem: Given the molecule NC(=O)NCC(=O)N1C[C@H]2CC[C@@H]1CN(Cc1cscn1)C2 , what is its reported Percent Effect?
Result: 0

Problem: Which Percent Effect value is on record for c1cncc(NCCCNC2CCSC2)c1 (centres undefined) ?
Result: 28.6

Problem: What value of measured Percent Effect is listed for CC(C)CNc1nc(C(=O)/N=c2\[nH]nc(C(C)(C)C)s2)cs1 ?
Result: 1.91

Problem: I would be grateful if you could share the reported Percent Effect for c1cncc(NCCNC2CCSC2)c1 (centres undefined) .
Result: 62.9

Problem: Endpoint output: Percent Effect of CN1CCN(Cc2nnc(C3CCN(C4CCCCC4)CC3)n2C)CC1 . Value?
Result: 13.2

Problem: Any idea what its Percent Effect is? The molecule is COCCN1C[C@H]2CC[C@@H]1CN(Cc1cc(=O)c3cc(C)ccc3[nH]1)C2
Result: 40.6

Problem: Consider the molecule Cc1ccnc(N2C[C@@H]3CC[C@H](C2)N(CC2CCC2)C3=O)n1 and give its measured Percent Effect.
Result: 34.4

Problem: Percent Effect lookup needed for O=C(NCC1CCCO1)c1nc2c(s1)CCCN2CC1CC1 (centres undefined) , thanks.
Result: 29.2

Problem: Need Percent Effect, item COC(=O)c1ccc(OC)c(Cn2cc(Br)cn2)c1
Result: 1.12

Problem: I'd like to know its Percent Effect. The molecule in question is O=C(c1cccc(F)c1)N1CCN2C[C@H](OCc3cccnc3)C[C@H]2C1
Result: 9.49

Problem: Suppose we examine the molecule O=C(CC1=CSC2=NCCN12)N1CCCC(CCc2cccc(F)c2)C1 (centres undefined) ; what Percent Effect value has been reported?
Result: 28.3

Problem: Need Percent Effect, item COCCN1CCCc2sc(C(=O)NCC3CCCO3)nc21 (centres undefined)
Result: 52.8

Problem: Which Percent Effect is listed for Cc1[nH]/c(=N\C(=O)c2csc(NCC(C)C)n2)sc1C ?
Result: 20.9

The reported numbers originate from ChEMBL document CHEMBL3988442.
